- target entity: human GR (Homo sapiens, UniProt P04150)
- Construct: naturally expresses the human GR; endogenous in cells
- Sequence (P04150 1-777): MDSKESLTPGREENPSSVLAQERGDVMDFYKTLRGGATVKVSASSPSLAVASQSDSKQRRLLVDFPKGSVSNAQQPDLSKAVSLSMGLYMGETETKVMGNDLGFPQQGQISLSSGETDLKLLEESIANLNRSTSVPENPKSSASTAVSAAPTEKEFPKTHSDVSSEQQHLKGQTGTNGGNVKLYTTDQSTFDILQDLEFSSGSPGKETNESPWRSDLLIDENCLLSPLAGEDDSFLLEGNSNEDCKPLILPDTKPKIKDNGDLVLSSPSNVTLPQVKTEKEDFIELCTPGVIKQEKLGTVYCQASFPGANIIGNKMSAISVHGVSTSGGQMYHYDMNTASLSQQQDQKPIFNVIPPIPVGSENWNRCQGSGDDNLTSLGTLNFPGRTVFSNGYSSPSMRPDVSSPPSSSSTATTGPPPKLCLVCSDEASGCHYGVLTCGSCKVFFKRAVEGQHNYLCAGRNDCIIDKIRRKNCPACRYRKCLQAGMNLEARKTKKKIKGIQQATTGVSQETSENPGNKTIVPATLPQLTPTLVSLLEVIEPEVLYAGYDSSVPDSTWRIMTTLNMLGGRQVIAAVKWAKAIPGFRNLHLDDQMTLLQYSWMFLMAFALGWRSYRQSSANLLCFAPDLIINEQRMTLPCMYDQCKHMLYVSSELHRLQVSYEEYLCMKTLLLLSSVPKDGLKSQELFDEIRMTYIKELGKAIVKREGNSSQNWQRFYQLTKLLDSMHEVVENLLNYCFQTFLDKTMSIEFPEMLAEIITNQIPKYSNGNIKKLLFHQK
- assay protocol: Transrepression assay (GITAR), TNFα-β-lactamase reporter in U937 cells
- Assay type: cell-based
- test context: U937 cells; IP = inflection point
property: EC50 (nM)

compound: CC[C@]12Cc3cnn(-c4ccc(F)cc4)c3C=C1CC[C@@]2(O)CCc1nccc(OC)c1C(F)C(N)=O (stereo partly shown) [Example 65]
EC50, nM: 195

I = NC(=O)c1ccccc1CC[C@]1(O)CCC2=Cc3c(cnn3-c3cccc(F)c3)C[C@@]21C1CC1 [Example 7]
II = NC(=O)CNC(=O)c1cc(F)cnc1CC[C@]1(O)CCC2=Cc3c(cnn3-c3ccc(F)cc3)C[C@@]21C1CC1 [Example 44]
III = O=C(NC1(CO)CC1)c1ccccc1CC[C@]1(O)CCC2=Cc3c(cnn3-c3ccc(F)cc3)C[C@@]21C1CC1 [Example 46]
Ordering: ascending EC50. Write the labels in rank order as requested.
III, II, I
(III: 7 nM, II: 38 nM, I: 143 nM)

---

- target entity: human GR (Homo sapiens, UniProt P04150)
- Construct: naturally expresses the human GR; endogenous in cells
- assay protocol: Trans-activation modulation of glucocorticoid receptor (GRAMMER), MMTV-LUC reporter in A549 cells
- Format: cell-based
- test context: A549 cells; IP = inflection point; read-out: Transactivation A549 Cells Grammer IP
property: EC50 (nM)

Answered cases to consult:
compound: CC[C@]12Cc3cnn(-c4cccnc4)c3C=C1CC[C@@]2(O)CCc1cccc(F)c1C(N)=O [Example 14]
units symbol: nM
EC50: 88
--
compound: CC[C@]12Cc3cnn(-c4ccc(F)cc4)c3C=C1CC[C@@]2(O)CCc1ccc(F)cc1C(N)=O [Example 8]
units symbol: nM
EC50: 106
--
compound: NC(=O)CNC(=O)c1ccccc1CC[C@]1(O)CCC2=Cc3c(cnn3-c3ccc(F)cc3)C[C@@]21C1CC1 [Example 47]
units symbol: nM
EC50: 17
--
compound: CC[C@]12Cc3cnn(-c4ccccc4)c3C=C1CC[C@@]2(O)CCc1ccccc1C(N)=O [Example 20]
units symbol: nM
EC50: 45
--
compound: CC[C@]12Cc3cnn(-c4cccc(F)c4)c3C=C1CC[C@@]2(O)CCc1cccc(F)c1C(N)=O [Example 12]
units symbol: nM
EC50: 23

A = CC[C@]12Cc3cnn(-c4ccccc4)c3C=C1CC[C@@]2(O)CCc1ccc(F)cc1C(N)=O [Example 6]
B = NC(=O)c1cccnc1CC[C@]1(O)CCC2=Cc3c(cnn3-c3ccc(F)cc3)C[C@@]21C1CC1 [Example 1]
# min-compare on EC50 between A and B Please respond with the label that marks your chosen entry.
B
(B: 61 nM, A: 178 nM)

A = CC[C@]12Cc3cnn(-c4ccc(F)cc4)c3C=C1CC[C@@]2(O)CCc1nccc(C2CC2)c1C(=O)OC [Example 41]
B = N#Cc1ccnc(CC[C@]2(O)CCC3=Cc4c(cnn4-c4ccc(F)cc4)C[C@@]32C2CC2)c1 [Example 35]
C = COc1cccc(CC[C@]2(O)CCC3=Cc4c(cnn4-c4ccc(F)cc4)C[C@@]32C2CC2)c1C(N)=O [Example 38]
D = NC(=O)CNC(=O)c1cccnc1CC[C@]1(O)CCC2=Cc3c(cnn3-c3ccc(F)cc3)C[C@@]21C1CC1 [Example 43]
Could you please sort these 4 entries by EC50 from high to low? Write the labels in rank order as requested.
D, A, B, C

A = NC(=O)Cc1c(F)cccc1CC[C@]1(O)CCC2=Cc3c(cnn3-c3ccc(F)cc3)C[C@@]21C1CC1 [Example 61]
B = NC(=O)[C@H](F)c1c(F)cccc1CC[C@]1(O)CCC2=Cc3c(cnn3-c3ccc(F)cc3)C[C@@]21C1CC1 [Example 57]
# min-compare on EC50 between A and B Please respond with the label that marks your chosen entry.
A

I = CC(C)(CO)NC(=O)c1ccccc1CC[C@]1(O)CCC2=Cc3c(cnn3-c3ccc(F)cc3)C[C@@]21C1CC1 [Example 45]
II = CC[C@]12Cc3cnn(-c4ccccc4)c3C=C1CC[C@@]2(O)CCc1ncccc1S(=O)(=O)C(C)C [Example 81]
# min-compare on EC50 between I and II Please respond with the label that marks your chosen entry.
I
(I: 22 nM, II: 96 nM)
